Every entry's value here was drawn from ChEMBL document CHEMBL5543068.

Test system: A549
Test summary: Antiproliferative activity against human A549 cells assessed as reduction in cell viability incubated for 48 hrs by MTT assay
Format: functional, cell-based
Conditions used: A549, 48 h
Property measured: pIC50
Formally, pIC50 is defined as -log10 of the concentration c, with c in mol/L.

# input molecule: C=CCc1ccc(OCCCCCCCCCC[n+]2ccc(/C=C/c3c[nH]c4ccccc34)cc2)c(-c2ccc(OC)c(CC=C)c2)c1 ; wanted: its pIC50
5.24

Fill in the blank: the reported pIC50 of C=CCc1ccc(OCCC)c(-c2ccc(OCCCCCCCCCC[n+]3ccc(/C=C/c4c[nH]c5ccccc45)cc3)c(CC=C)c2)c1 is ____.
5.02

Request the reported pIC50 associated with C=CCc1ccc(OC)c(-c2ccc(OCCCCCCCCCC[n+]3ccc(/C=C/c4c[nH]c5ccccc45)cc3)c(CC=C)c2)c1
4.98

Report pIC50 for C=CCc1ccc(OCCC)c(-c2ccc(OCCCOC(=O)Cc3c4[n+](cc5c(OC)c(OC)ccc35)CCc3cc5c(cc3-4)OCO5)c(CC=C)c2)c1 please.
5.46

Given CCCCCCCCCCOC(=O)Cc1c2[n+](cc3c(OC)c(OC)ccc13)CCc1cc3c(cc1-2)OCO3 , state its recorded pIC50.
5.82

Consider the molecule C=CCc1ccc(OCCC)c(-c2ccc(OCCCCCC[n+]3ccc(/C=C/c4c[nH]c5ccccc45)cc3)c(CC=C)c2)c1 and give its measured pIC50.
5.69

For C=CCc1ccc(OC)c(-c2ccc(OCCCCCCCCCCOC(=O)Cc3c4[n+](cc5c(OC)c(OC)ccc35)CCc3cc5c(cc3-4)OCO5)c(CC=C)c2)c1 , what is its reported pIC50?
5.57

pIC50 lookup needed for C=CCc1ccc(OC(=O)Cc2c3[n+](cc4c(OC)c(OC)ccc24)CCc2cc4c(cc2-3)OCO4)c(-c2ccc(OCCC)c(CC=C)c2)c1 , thanks.
5.39

I'd like to know its pIC50. The molecule in question is C=CCc1ccc(OCCCCCC[n+]2ccc(/C=C/c3c[nH]c4ccccc34)cc2)c(-c2ccc(OCCC)c(CC=C)c2)c1
5.31

Look at this molecule and give its reported pIC50. C=CCc1ccc(O)c(-c2ccc(O)c(CC=C)c2)c1 [HONOKIOL]
4.32

Look up pIC50: CCCCCCCCCCc1c2[n+](cc3c(OC)c(OC)ccc13)CCc1cc3c(cc1-2)OCO3
5.93

For the molecule shown here, CCCCCCOC(=O)Cc1c2[n+](cc3c(OC)c(OC)ccc13)CCc1cc3c(cc1-2)OCO3 , give the reported pIC50.
5.21

What value of pIC50 has been reported for the following molecule? C=CCc1ccc(OC)c(-c2ccc(OCCCOC(=O)Cc3c4[n+](cc5c(OC)c(OC)ccc35)CCc3cc5c(cc3-4)OCO5)c(CC=C)c2)c1
5.11

So what does the record say about pIC50 for C=CCc1ccc(OCCCCCC[n+]2ccc(/C=C/c3c[nH]c4ccccc34)cc2)c(-c2ccc(OC)c(CC=C)c2)c1 ?
5.60

Look at this molecule and give its reported pIC50. C=CCc1ccc(OCCCCCCCCCCOC(=O)Cc2c3[n+](cc4c(OC)c(OC)ccc24)CCc2cc4c(cc2-3)OCO4)c(-c2ccc(OC)c(CC=C)c2)c1
5.73

Reported pIC50 for C=CCc1ccc(OCCC)c(-c2ccc(OC(=O)Cc3c4[n+](cc5c(OC)c(OC)ccc35)CCc3cc5c(cc3-4)OCO5)c(CC=C)c2)c1 : what is it?
5.22

Look up pIC50 for this molecule: C=CCc1ccc(OC(=O)Cc2c3[n+](cc4c(OC)c(OC)ccc24)CCc2cc4c(cc2-3)OCO4)c(-c2ccc(OC)c(CC=C)c2)c1
5.26

Name the reported pIC50 value associated with the molecule C=CCc1ccc(OCCCOC(=O)Cc2c3[n+](cc4c(OC)c(OC)ccc24)CCc2cc4c(cc2-3)OCO4)c(-c2ccc(OCCC)c(CC=C)c2)c1
5.24

For the molecule shown here, C=CCc1ccc(OCCC)c(-c2ccc(OCCCCCCCCCCOC(=O)Cc3c4[n+](cc5c(OC)c(OC)ccc35)CCc3cc5c(cc3-4)OCO5)c(CC=C)c2)c1 , give the reported pIC50.
5.21

For the molecule shown here, C=CCc1ccc(OC)c(-c2ccc(OC(=O)Cc3c4[n+](cc5c(OC)c(OC)ccc35)CCc3cc5c(cc3-4)OCO5)c(CC=C)c2)c1 , give the reported pIC50.
5.26

GET /values?readout=pIC50&item= C=CCc1ccc(OCCCCCCOC(=O)Cc2c3[n+](cc4c(OC)c(OC)ccc24)CCc2cc4c(cc2-3)OCO4)c(-c2ccc(OCCC)c(CC=C)c2)c1
5.47

Entry C=CCc1ccc(OCCC)c(-c2ccc(OCCCCCCOC(=O)Cc3c4[n+](cc5c(OC)c(OC)ccc35)CCc3cc5c(cc3-4)OCO5)c(CC=C)c2)c1 has what pIC50?
5.80

Please give the measured pIC50 for this molecule: CCCCCCCCc1c2[n+](cc3c(OC)c(OC)ccc13)CCc1cc3c(cc1-2)OCO3
5.76

Reported pIC50, molecule CCCOC(=O)Cc1c2[n+](cc3c(OC)c(OC)ccc13)CCc1cc3c(cc1-2)OCO3 : ____
4.80

Could you tell me which pIC50 is on file for C=CCc1ccc(OCCCCCCCCCC[n+]2ccc(/C=C/c3c[nH]c4ccccc34)cc2)c(-c2ccc(OCCC)c(CC=C)c2)c1 ?
5.09

Item under review: C=CCc1ccc(OCCC[n+]2ccc(/C=C/c3c[nH]c4ccccc34)cc2)c(-c2ccc(OC)c(CC=C)c2)c1 . Reported pIC50?
5.49

Need pIC50, item C=CCc1ccc(OC)c(-c2ccc(OCCCCCC[n+]3ccc(/C=C/c4c[nH]c5ccccc45)cc3)c(CC=C)c2)c1
5.47
